assay: Plasma stability, human plasma; assay type: in vitro ADME; details: 37° C., time points 0 minute, 1, 2 and 4 hours, LC-MS/MS, read-out: Human plasma (T1/2 (h)) (converted)
Square brackets hold non-standard residues; d marks the D form. Peptide text beside a SMILES is read from it. * marks the point of attachment. PEG8 = NCCOCCOCCOCCOCCOCCOCCOCCOCCC(=O)O; 2Nal = N[C@@H](Cc1ccc2ccccc2c1)C(=O)O; Hydrocinnamoyl = O=C(CCc1ccccc1)*; Palmitoyl = CCCCCCCCCCCCCCCC(=O)*; Tic = O=C(O)[C@@H]1Cc2ccccc2CN1; NMeL = CN[C@@H](CC(C)C)C(=O)O; Thz = O=C(O)[C@@H]1CSCN1; βAla = NCCC(=O)O
measuredProperty: half-life at 500 ng/mL (h)
Express your answer in h, writing the number without its unit.

Query: Quick one: half-life at 500 ng/mL of CC(C)C[C@H](NC(=O)[C@H](Cc1ccccc1)NC(=O)[C@H](N)Cc1ccc(O)cc1)C(=O)N1CCC[C@H]1C(=O)N[C@H](CO)C(=O)N[C@@H](CCC(N)=O)C(=O)N[C@@H](Cc1ccccc1)C(=O)N[C@H](C)C(=O)N1Cc2ccccc2C[C@H]1C(=O)N[C@@H](CO)C(=O)O [YW-3, reference compound] (H-[dY]FLP[dS]QF[dA][Tic]S-OH) ?
Reply: 12.8

Query: What about CC(C)C[C@@H](C(=O)N1CSC[C@H]1C(=O)N[C@H](CO)C(=O)N[C@@H](CCC(N)=O)C(=O)N[C@@H](Cc1ccc2ccccc2c1)C(=O)N[C@H](C)C(=O)N1Cc2ccccc2C[C@H]1C(=O)N[C@@H](CO)C(=O)O)N(C)C(=O)[C@H](Cc1ccccc1)NC(=O)[C@H](N)Cc1ccc(O)cc1 [YW-122] (H-[dY]F[NMeL][Thz][dS]Q[2Nal][dA][Tic]S-OH) ?
Reply: 79.6

Query: What about CC(C)C[C@@H](C(=O)N1CCC[C@H]1C(=O)N[C@H](CO)C(=O)N[C@@H](CCC(N)=O)C(=O)N[C@@H](Cc1ccccc1)C(=O)N[C@H](C)C(=O)N1Cc2ccccc2C[C@H]1C(=O)N[C@@H](CO)C(=O)O)N(C)C(=O)[C@H](Cc1ccccc1)NC(=O)[C@@H](Cc1ccc(O)cc1)NC(=O)CCc1ccccc1 [YW-111] (Hydrocinnamoyl-[dY]F[NMeL]P[dS]QF[dA][Tic]S-OH) ?
Reply: 71

Query: What about CCCCCCCCCCCCCCCC(=O)NCCOCCOCCOCCOCCOCCOCCOCCOCCC(=O)NCCC(=O)NCCC(=O)N[C@H](Cc1ccc(O)cc1)C(=O)N[C@@H](Cc1ccccc1)C(=O)N(C)[C@@H](CC(C)C)C(=O)N1CCC[C@H]1C(=O)N[C@H](CO)C(=O)N[C@@H](CCC(N)=O)C(=O)N[C@@H](Cc1ccccc1)C(=O)N[C@H](C)C(=O)N1Cc2ccccc2C[C@H]1C(=O)N[C@@H](CO)C(=O)O [YW-134] ({Palmitoyl-PEG8-βAla-βAla}-[dY]F[NMeL]P[dS]QF[dA][Tic]S-OH) ?
Reply: 14

* * *

Exercise: for every item that follows, state its recorded EC50.
target: human Chemokine like receptor 1 (Homo sapiens); construct: host or cells: U2OS (Tango CMKLR1-bla U2OS); experiment: Activation of Tango CMKLR1-bla U2OS cells (beta-lactamase FRET reporter); assay type: cell-based; settings: determination by the method of Effect Embodiment 1; read-out: EC50
Sequence (Q99788 whole entry): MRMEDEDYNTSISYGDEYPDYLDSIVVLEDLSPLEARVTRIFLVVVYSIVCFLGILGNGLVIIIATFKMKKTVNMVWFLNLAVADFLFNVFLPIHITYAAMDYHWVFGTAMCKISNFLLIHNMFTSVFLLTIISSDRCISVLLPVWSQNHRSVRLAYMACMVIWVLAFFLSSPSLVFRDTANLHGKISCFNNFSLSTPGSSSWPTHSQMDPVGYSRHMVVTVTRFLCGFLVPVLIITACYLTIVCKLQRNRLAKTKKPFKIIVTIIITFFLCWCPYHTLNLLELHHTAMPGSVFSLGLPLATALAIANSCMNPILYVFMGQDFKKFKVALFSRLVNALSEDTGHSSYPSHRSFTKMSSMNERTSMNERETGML
Numbered stars: 1 amine (or outer) side, 2 acyl side, 3 side chain; on linkers, the order of the positions; unused ones are H or OH. Square brackets hold non-standard residues; d marks the D form. Peptide text beside a SMILES is read from it. * marks the point of attachment. Benzoyl(4-CF3) = O=C(c1ccc(C(F)(F)F)cc1)*; dTyr(3-F) = N[C@H](Cc1ccc(O)c(F)c1)C(=O)O; PEG8 = NCCOCCOCCOCCOCCOCCOCCOCCOCCC(=O)O; Benzoyl(2,3-diOH) = O=C(c1cccc(O)c1O)*; Pro(4,4-F2) = O=C(O)[C@@H]1CC(F)(F)CN1; X5 = O=C([C@H]1c2ccccc2CCN1[*:1])[*:2]; 1Nal = N[C@@H](Cc1cccc2ccccc12)C(=O)O; 2Nal = N[C@@H](Cc1ccc2ccccc2c1)C(=O)O; dNMeY = CN[C@H](Cc1ccc(O)cc1)C(=O)O; Palmitoyl = CCCCCCCCCCCCCCCC(=O)*; Tic = O=C(O)[C@@H]1Cc2ccccc2CN1; NMeL = CN[C@@H](CC(C)C)C(=O)O; NMeS = CN[C@@H](CO)C(=O)O; Thz = O=C(O)[C@@H]1CSCN1; βAla = NCCC(=O)O
Express your answer in nM, writing the number without its unit.

Query: Quick one: EC50 of CC(C)C[C@H](NC(=O)[C@H](Cc1ccccc1)NC(=O)[C@@H](Cc1ccc(O)cc1)NC(=O)c1cccc(O)c1O)C(=O)N1CCC[C@H]1C(=O)N[C@H](CO)C(=O)N[C@@H](CCC(N)=O)C(=O)N[C@@H](Cc1ccccc1)C(=O)N[C@H](C)C(=O)N1Cc2ccccc2C[C@H]1C(=O)N[C@@H](CO)C(=O)O [YW-127] ({Benzoyl(2,3-diOH)}-[dY]FLP[dS]QF[dA][Tic]S-OH) ?
Reply: 10

Query: What about CC(C)C[C@@H](C(=O)N1CCC[C@H]1C(=O)N[C@H](CO)C(=O)N[C@@H](CCC(N)=O)C(=O)N[C@@H](Cc1ccccc1)C(=O)N[C@H](C)C(=O)N1CCc2ccccc2[C@@H]1C(=O)N[C@@H](CO)C(=O)O)N(C)C(=O)[C@H](Cc1ccccc1)NC(=O)[C@H](N)Cc1ccc(O)cc1 [YW-153] (H-[dY]F[NMeL]P[dS]QF[dA][X5]S-OH) ?
Reply: 8.5

Query: What about CCCCCCCCCCCCCCCC(=O)NCCOCCOCCOCCOCCOCCOCCOCCOCCC(=O)NCC(=O)NCC(=O)N(C)[C@H](Cc1ccc(O)cc1)C(=O)N[C@@H](Cc1ccccc1)C(=O)N(C)[C@@H](CC(C)C)C(=O)N1CCC[C@H]1C(=O)N[C@H](CO)C(=O)N[C@@H](CCC(N)=O)C(=O)N[C@@H](Cc1ccc2ccccc2c1)C(=O)N[C@H](C)C(=O)N1Cc2ccccc2C[C@H]1C(=O)N(C)[C@@H](CO)C(=O)O [YW-178] ({Palmitoyl-PEG8}-GG[dNMeY]F[NMeL]P[dS]Q[2Nal][dA][Tic][NMeS]-OH) ?
Reply: 2.1

Query: What about CC(C)C[C@H](NC(=O)[C@H](Cc1ccccc1)NC(=O)[C@H](N)Cc1ccccc1)C(=O)N1CCC[C@H]1C(=O)N[C@H](CO)C(=O)N[C@@H](CCC(N)=O)C(=O)N[C@@H](Cc1ccccc1)C(=O)N[C@H](C)C(=O)N1Cc2ccccc2C[C@H]1C(=O)N[C@@H](CO)C(=O)O [YW-97] (H-[dF]FLP[dS]QF[dA][Tic]S-OH) ?
Reply: 50

Query: What about CN[C@H](Cc1ccc(O)cc1)C(=O)N[C@@H](Cc1ccccc1)C(=O)N(C)[C@@H](CC(C)C)C(=O)N1CSC[C@H]1C(=O)N[C@H](CO)C(=O)N[C@@H](CCC(N)=O)C(=O)N[C@@H](Cc1cccc2ccccc12)C(=O)N[C@H](C)C(=O)N1Cc2ccccc2C[C@H]1C(=O)N(C)[C@@H](CO)C(=O)O [YW-142] (H-[dNMeY]F[NMeL][Thz][dS]Q[1Nal][dA][Tic][NMeS]-OH; N-terminus assumed) ?
Reply: 0.9

Query: What about CC(C)C[C@@H](C(=O)N1CCC[C@H]1C(=O)N[C@H](CO)C(=O)N[C@@H](CCC(N)=O)C(=O)N[C@@H](Cc1ccccc1)C(=O)N[C@H](C)C(=O)N1Cc2ccccc2C[C@H]1C(=O)N[C@@H](CO)C(=O)O)N(C)C(=O)[C@H](Cc1ccccc1)NC(=O)[C@@H](Cc1ccc(O)cc1)NC(=O)c1ccc(C(F)(F)F)cc1 [YW-195] ({Benzoyl(4-CF3)}-[dY]F[NMeL]P[dS]QF[dA][Tic]S-OH) ?
Reply: 0.8

Query: What about CC(C)C[C@@H](C(=O)N1CC(F)(F)C[C@H]1C(=O)N[C@H](CO)C(=O)N[C@@H](CCC(N)=O)C(=O)N[C@@H](Cc1ccc2ccccc2c1)C(=O)N[C@H](C)C(=O)N1Cc2ccccc2C[C@H]1C(=O)N(C)[C@@H](CO)C(=O)O)N(C)C(=O)[C@H](Cc1ccccc1)NC(=O)[C@H](N)Cc1ccc(O)c(F)c1 [YW-226] (H-[dTyr(3-F)]F[NMeL][Pro(4,4-F2)][dS]Q[2Nal][dA][Tic][NMeS]-OH) ?
Reply: 3.3

Query: What about CCCCCCCCCCCCCCCC(=O)NCCOCCOCCOCCOCCOCCOCCOCCOCCC(=O)NCCC(=O)NCCC(=O)N(C)[C@H](Cc1ccc(O)cc1)C(=O)N[C@@H](Cc1ccccc1)C(=O)N(C)[C@@H](CC(C)C)C(=O)N1CCC[C@H]1C(=O)N[C@H](CO)C(=O)N[C@@H](CCC(N)=O)C(=O)N[C@@H](Cc1ccc2ccccc2c1)C(=O)N[C@H](C)C(=O)N1Cc2ccccc2C[C@H]1C(=O)N(C)[C@@H](CO)C(=O)O [YW-179] ({Palmitoyl-PEG8-βAla-βAla}-[dNMeY]F[NMeL]P[dS]Q[2Nal][dA][Tic][NMeS]-OH) ?
Reply: 2.1
